System: CCRF-CEM
EXPERIMENT_SUMMARY: NCI tumour cell line growth inhibition, 48 h
Activity calls are given as the source filed them. No stated cut-off is given here; in the data, active = GI50 up to about 1.1 µM and inactive = higher.
READOUT: GI50

COMPOUND | GI50
c1cc2c3c(c1)c1cc4c(cc1c[n+]3CC2)OCO4 [ANHYDROLYCORINIUM CHLORIDE] | 3.35 µM (inactive)
O=C(Nc1nnc(S)[nH]1)C(=O)C1C(=O)Nc2ccccc2[S+]1[O-] (stereo unspecified) | > 100 µM (inactive)
COc1ccc2c(c1)CCC(OS(=O)(=O)CC13CCC(CC1=O)C3(C)C)C2=O (stereo unspecified) | 18.8 µM (inactive)
CCOC(=O)c1ccn2c(c1)c(C#N)c1nc3ccccc3nc12 | 18.5 µM (inactive)

Query GI50 for CCOC(=O)C1C(=O)c2cccc(OC)c2C2COC(=O)N12 (stereo unspecified)
> 100 µM (inactive)

Query GI50 for O=C(C(O)c1cn(Cc2ccccc2)c2ccccc12)N1CCCCC1 (stereo unspecified)
67.1 µM (inactive)

Query GI50 for CCOC(=O)C(Cc1cccn1C(=O)OC(C)(C)C)[N+](=O)[O-] (stereo unspecified)
17.1 µM (inactive)

----------
Test system: RXF 393
EXPERIMENT_SUMMARY: NCI tumour cell line growth inhibition, 48 h
The source made the active and inactive calls. Rule as the data show it: active = GI50 up to about 1.1 µM and inactive = higher.
READOUT: GI50

Consider the worked cases shown below.
COMPOUND | MEASURED_ON | GI50
CC1CCC(=O)C(C(=O)CC2CC(=O)NC(=O)C2)C1 (stereo unspecified) | RXF 393 | > 100 µM (inactive)
COc1cc2cc3c4c(cc(OC)c(OC)c4c2cc1OC)CCN3C(=O)OCCBr | RXF 393 | 42.5 µM (inactive)
O=S(=O)(c1ccccc1)C1CN(Cc2ccccc2)CCN(Cc2ccccc2)C1 | RXF 393 | 10.4 µM (inactive)
C[N+]1(CC[N+]2(C)CCCC2c2cccnc2)CCCC1c1cccnc1 (stereo unspecified) | RXF 393 | > 100 µM (inactive)
CN1CCN(C(=S)N(C(=O)c2cccs2)C2CCCCC2)CC1 | RXF 393 | > 100 µM (inactive)

Query GI50 for COc1cc2c(cc1OC)C(O)[C@H](Br)C(C)(C)O2 (stereo partly specified)
> 100 µM (inactive)

Query GI50 for `C(#C[C@@]12CCC[C@@H]1NCO2)c1ccc2c(c1)OCO2`
49.3 µM (inactive)

Query GI50 for `COc1ccc(OC)c(CSc2ccc(OC)c(OC)c2)c1`
> 100 µM (inactive)

Query GI50 for `CN1CCC23c4ccccc4NC1C21CCN(C)C3Nc2ccccc21`
152 µM (inactive)

Query GI50 for `N/C(=N\c1ccccc1)c1ccccc1N`
> 100 µM (inactive)

Query GI50 for CCCN(CCCC(NC(C)=O)C(=O)NCc1ccccc1)C(=O)NCCCl (stereo unspecified)
> 100 µM (inactive)

----------
Test system: OVCAR-3
EXPERIMENT_SUMMARY: NCI tumour cell line growth inhibition, 48 h
The source made the active and inactive calls. No stated cut-off is given here; in the data, active = GI50 up to about 1.1 µM and inactive = higher.
READOUT: GI50

Consider the worked cases shown below.
MOLECULE | GI50
C[C@H](O)C1CC(Cn2nnc3c(N)ncnc32)C1(C)C (stereo not given in full) | > 100 µM (inactive)
Cc1nc2ccccc2n1Cc1ccc(NC(=S)NC2CCCCC2)cc1 | 10.8 µM (inactive)
O=C(CCCCCCC(=O)Nc1cccnc1)NO [PYROXAMIDE] | 2.86 µM (inactive)
NC(=O)N/N=C\c1ccccc1OCc1cccc(COc2ccccc2/C=N\NC(N)=O)n1 | > 100 µM (inactive)
C[C@H](NC(=O)c1ccc(CNC(=O)/C=C/c2cccc(Oc3ccccc3)c2)cc1)c1ccccc1 | > 100 µM (inactive)
O=C1NC(=O)C2(CCC(O)C2)c2cc[n+]([O-])cc21 (stereo not given) | > 100 µM (inactive)
C=CC[C@]1(C2=NC(C)(C)CO2)c2ccccc2-c2ccccc2[C@H]1C(C)=O | 3.13 µM (inactive)
COc1cc2c(cc1OC)C1Cc3ccccc3CCN1CC2 (stereo not given) | > 100 µM (inactive)

Query GI50 for COC(=O)/C(=N\N)C(C(=O)C(=O)Nc1nnc(S)[nH]1)c1nc2ccc([N+](=O)[O-])cc2nc1O (stereo not given)
> 100 µM (inactive)

Query GI50 for `Nn1c(Nc2ccc(S(=O)(=O)Nc3ncccn3)cc2)nnc(/C=C/c2c(O)ccc3ccccc23)c1=O`
15.1 µM (inactive)

----------
Tested on: OVCAR-4
EXPERIMENT_SUMMARY: NCI tumour cell line growth inhibition, 48 h
Calls of active or inactive are those of the source. Rule as the data show it: active = GI50 up to about 1.1 µM and inactive = higher.
# GI50 annotations

Consider the worked cases shown below.
MOLECULE | GI50
N/C(=N\c1ccccc1)c1ccccc1N | > 100 µM (inactive)
O=C(COC(c1ccc(F)cc1)c1ccc(F)cc1)N1CCN(CCCc2ccccc2)CC1 | 3.24 µM (inactive)
CC(C)=CCC/C(C)=C/CC/C(C)=C/CC/C(C)=C/CC/C(C)=C/CC/C(C)=C/CC/C(C)=C/CC/C(C)=C/CC/C(C)=C/CO [SOLANESOL] | > 100 µM (inactive)
O=C(Nc1cccs1)c1c(O)[nH]c(=S)[nH]c1=O | > 100 µM (inactive)

Attention now turns to another entry.
Query GI50 for CC12CP(=O)(O)CC1C2(Cl)Cl (stereo not given)
> 100 µM (inactive)

----------
Test system: K562
EXPERIMENT_SUMMARY: NCI tumour cell line growth inhibition, 48 h
Calls of active or inactive are those of the source. No stated cut-off is given here; in the data, active = GI50 up to about 1.1 µM and inactive = higher.
Can you answer with just one of these options? 1 (yes) for active, 0 (no) for inactive

Example entries begin here.
MOLECULE | CATEGORY_LABEL
CC1/C=C/[C@@]2(C)CCC(C(C)(C)O)C2C(O)C[C@](C)(O)/C=C/C1 (stereo partly specified) | 0 (no)
Cc1ccccc1/N=N/C(C(=O)c1ccccc1)C(=O)c1ccccc1 | 0 (no)
CCCCCCCCCC1CC(=O)OC23CCCC(=O)C12O3 (stereo unspecified) | 0 (no)
N#CC(C#N)=C1c2ccccc2C(=NN)c2ccccc21 | 0 (no)

Hi, do you know how `N=C(N)SCc1cccc([N+](=O)[O-])c1` came out in this test?
0 (no)

Hi, do you know how `Cc1cc2c(cc1Cl)SC(NNC(=O)c1ccccc1)=NS2(=O)=O` came out in this test?
0 (no)

Hi, do you know how `O=C(Nc1ccccc1)c1cc(S(=O)(=O)Nc2n[nH]c(=O)[nH]2)c(SSc2cc(Cl)c(C(=O)Nc3ccccc3)cc2S(=O)(=O)Nc2n[nH]c(=O)[nH]2)cc1Cl` came out in this test?
0 (no)

Hi, do you know how `COC(=O)/C=C1\CCCN1CCc1cc2c(cc1CC#N)OCO2` came out in this test?
0 (no)

Hi, do you know how `COc1cc2c(c(OC)c1OC)-c1ccc(SC)c(=O)cc1[C@@H](NCc1cccc([N+](=O)[O-])c1)CC2` came out in this test?
1 (yes)

Hi, do you know how `CNS(=O)(=O)c1ccc2c(c1)/C(=C1/Nc3ccccc3C1=O)C(=O)N2` came out in this test?
0 (no)

Hi, do you know how C=C1CC2(CCOc3ccc(Cl)cc32)OC1=O (stereo unspecified) came out in this test?
0 (no)

Hi, do you know how CC1=C2C(=O)C(C)(C)C=C2C(=O)[C@](C)(O)C12CC2 [DEHYDROILLUDIN M] came out in this test?
1 (yes)

Hi, do you know how `CCc1c[n+]([O-])c(C)cc1[N+](=O)[O-]` came out in this test?
0 (no)

Hi, do you know how CCOC(=O)C1C(=O)c2cccc(OC)c2C2COC(=O)N12 (stereo unspecified) came out in this test?
0 (no)

----------
Test system: SF-268
EXPERIMENT_SUMMARY: NCI tumour cell line growth inhibition, 48 h
Active and inactive are the calls of the source. Cut-off read from the data, not from the text of the source: active = GI50 up to about 1.1 µM and inactive = higher.
# GI50 annotations

COMPOUND | MEASURED_ON | MEASURED_VALUE
O=C1C2C(C(=O)N1c1ccccc1)C1(Br)c3ccccc3C2(Br)C2C(=O)N(c3ccccc3)C(=O)C21 (stereo not drawn) | SF-268 | 27.7 µM (inactive)
COc1ccc(NC(=O)CC(=O)n2nc(-c3ccccc3)c(/N=N/c3ccc(C)cc3)c2-c2ccccc2)cc1 | SF-268 | 21.6 µM (inactive)

Query GI50 for COC1C(O)C(C)OC(OC2C(Oc3cccc4c(O)c5c(=O)oc6ccc(C)c7c(=O)oc(c34)c5c67)OC(C)C(O)C2O)C1O (stereo not drawn)
0.904 µM (active)

----------
Test system: MDA-MB-435
EXPERIMENT_SUMMARY: NCI tumour cell line growth inhibition, 48 h
Calls of active or inactive are those of the source. Cut-off read from the data, not from the text of the source: active = GI50 up to about 1.1 µM and inactive = higher. Where a SMILES comes first, the peptide text is derived from it. Bridges are numbered along the chain shown (N, C = ends). [ ]: non-standard residue; d: D form. The star is where a group is joined. ξ: configuration not given here. PhAc = O=C(Cc1ccccc1)*; ξP = O=C(O)C1CCCN1
READOUT: GI50

MOLECULE | READOUT | MEASURED_VALUE
Cc1ccc(/N=N/c2c(C)nn(C(=O)CC(=O)Nc3ccc(Cl)cc3)c2C)cc1C | GI50 | > 100 µM (inactive)
C=CC1(CCC(Br)C(C)(C)Cl)CO1 (stereo unspecified) | GI50 | > 10 µM (inactive)
CCN(CC)/N=C\c1c2ccccc2cc2ccccc12 | GI50 | 34.7 µM (inactive)
C=CC[C@]1(C2=NC(C)(C)CO2)c2ccccc2-c2ccccc2[C@H]1C(C)=O | GI50 | 3.64 µM (inactive)
C(#C[C@@]12CCC[C@@H]1NCO2)c1ccc2c(c1)OCO2 | GI50 | 61.1 µM (inactive)
O=C(O)CC(Nc1ccccc1)C(=O)O (stereo unspecified) | GI50 | > 100 µM (inactive)
Cc1ccc(C(=N)c2ccccc2Cc2cccc3ccccc23)c2ccccc12 | GI50 | > 100 µM (inactive)
COc1cc(C)cc2c1c(=O)c1ccccc1n2C | GI50 | 35.4 µM (inactive)

Query GI50 for `Cc1ccc2c(sc(-c3ccc4c(c3)sc(-c3ccc(N(C)C)cc3)[n+]4C)[n+]2C)c1S(=O)(=O)O.Cc1ccc2c(sc(-c3ccc4c(c3)sc(-c3ccc5c(c3)sc(-c3ccc(N(C)C)cc3)[n+]5C)[n+]4C)[n+]2C)c1S(=O)(=O)O`
> 100 µM (inactive)

Query GI50 for `COC(=O)NC(Nc1ccc(Cl)cc1Cl)(C(F)(F)F)C(F)(F)F`
25.1 µM (inactive)

Query GI50 for `O=C1C(Cl)=C(Cl)C(=O)C(CCNc2nccs2)=C1Cl`
21.4 µM (inactive)

Query GI50 for CN1C(=O)C2(C=CC(O)CC2)c2ccccc21 (stereo unspecified)
> 100 µM (inactive)

Query GI50 for O=C(Cc1ccccc1)N[C@@H]1COC(=O)C2CCCN2C(=O)[C@@H]2CCCN2C1=O (stereo partly specified) (PhAc-[dS]-Pro-[ξP]; ester 1-C)
> 100 µM (inactive)

Query GI50 for Nc1nc(=O)c2cc(NCc3ccc(C(=O)NC(CCC(=O)O)C(=O)O)cc3)ccc2[nH]1 (stereo unspecified)
> 100 µM (inactive)

Query GI50 for `C1=N\c2ccc(cc2)/N=C\c2ccc(cc2)OCc2cccc(n2)COc2ccc/1cc2`
> 100 µM (inactive)

Query GI50 for `COc1ccc(/C=C2\C(=O)NC(=O)c3ccccc32)cc1OC`
30.1 µM (inactive)

Query GI50 for `COc1cc(-c2oc3c(OC)c(O)c(OC)c(O)c3c(=O)c2OC)ccc1O`
17.8 µM (inactive)

Query GI50 for `CC1=CC(=O)C(=CN2C(=O)/C(=C\c3cccnc3)NC2=S)C(=O)O1`
> 100 µM (inactive)

Query GI50 for `O=C1CC(Cc2n[nH]c3c2CCCC3)CC(=O)N1`
> 100 µM (inactive)

Query GI50 for `COc1ccc(/C=C/C(=O)c2ccc(Br)cc2)cc1`
> 100 µM (inactive)

Query GI50 for COc1ccc([S+]([O-])Cc2cc(OC)ccc2OC)cc1 (stereo unspecified)
> 100 µM (inactive)

These data points were gathered from ChEMBL document CHEMBL1201862.
